Tested on: Plasmodium falciparum
Assay: Antimalarial activity against chloroquine-sensitive Plasmodium falciparum D6 by LDH assay
Format: functional, organism-based
Details: Plasmodium falciparum, D6; read-out: IC50
Observable: IC50 (mg/L)

{"Compound": "COc1cc(NC(C)CCCNC(=O)c2cncc(C(=O)NCCCC(C)Nc3cc(OC)cc4cccnc34)c2)c2ncccc2c1.Cl (stereo not drawn)", "Observable": "IC50", "Val": 3.3}
{"Compound": "CCCCCOc1c(OC)cc(NC(C)CCCNC(=O)NCCCC(C)Nc2cc(OC)c(OCCCCC)c3c(CC)ccnc23)c2nccc(CC)c12.Cl.Cl (stereo not drawn)", "Observable": "IC50", "Val": 1.7}
{"Compound": "COc1cc(NC(C)CCCNC(=O)NC(CCCN)C(=O)NCCCC(C)Nc2cc(OC)cc3cccnc23)c2ncccc2c1.Cl (single isomer, unassigned; 40)", "Observable": "IC50", "Val": 4.2}
{"Compound": "C[C@@H]1CC[C@H]2[C@@H](C)C(=O)O[C@@H]3O[C@@]4(C)CC[C@@H]1[C@]32OO4", "Observable": "IC50", "Val": 0.015}
{"Compound": "COc1cc(NC(C)CCCNCCNCCNCCCC(C)Nc2cc(OC)cc3cccnc23)c2ncccc2c1.Cl.Cl (stereo not drawn)", "Observable": "IC50", "Val": 2.6}
{"Compound": "COc1cc(NC(C)CCCNC(=O)C[C@H](N)C(=O)NCCCC(C)Nc2cc(OC)cc3cccnc23)c2ncccc2c1.Cl (stereo partly drawn)", "Observable": "IC50", "Val": 4.76}
{"Compound": "COc1cc(NC(C)CCCNC(=O)NC(CCCNC(=N)N)C(=O)NCCCC(C)Nc2cc(OC)cc3cccnc23)c2ncccc2c1.Cl (single isomer, unassigned; 39)", "Observable": "IC50", "Val": 2.4}
{"Compound": "COc1cc(NC(C)CCCNC(=S)NCCCC(C)Nc2cc(OC)cc3ccc(C(C)(C)C)nc23)c2nc(C(C)(C)C)ccc2c1.Cl.Cl (stereo not drawn)", "Observable": "IC50", "Val": 3}
